# testProtocol: in vitro
# Assay type: cell-based
# appliedConditions: human
readoutLabel: viability at 24 h, 20 µM

# compound, readoutLabel, reading
rows = [
    ("Cc1c(OC(=O)CCCSSCCCC(=O)OC[C@@H]2C=C[C@H](n3cnc4c(NC5CC5)nc(N)nc43)C2)cccc1C(=O)N[C@@H](CSc1ccccc1)[C@H](O)CN1C[C@H]2CCCC[C@H]2C[C@H]1C(=O)NC(C)(C)C [Aba-S2-NFV1, abacavir-S2-nelfinavir-1]", "viability at 24 h, 20 µM", "> 95%"),
]

Now, please, on to the next compound.
I have this compound here, CC(C)CN(C[C@@H](OC(=O)CCCSSCCCC(=O)OC[C@@H]1C=C[C@H](n2cnc3c(NC4CC4)nc(N)nc32)C1)[C@H](Cc1ccccc1)NC(=O)O[C@H]1CO[C@H]2OCC[C@H]21)S(=O)(=O)c1ccc(N)cc1 [Aba-S2-DRV8, abacavir-S2-darunavir-8] , and I need its recorded viability at 24 h, 20 µM.
70%

* * *

# studySystem: UniProt:P08183
# testProtocol: P-gp substrate accumulation assay (flow cytometry) in hCMEC/D3 cells
# Assay type: cell-based
# appliedConditions: calcein-AM 0.25 μM, 30 min, 1% DMSO, read-out: IC50, inhibition of P-gp mediated efflux of calcein-AM
readoutLabel: IC50 (nM)
Numbers only, in nM.

Solved entries:
# molecule, IC50 (nM)
rows = [
    ("CC(C)CN(C[C@@H](O)[C@H](Cc1ccccc1)NC(=O)O[C@H]1CO[C@H]2OCC[C@H]21)S(=O)(=O)c1ccc(N)cc1 [DRV, darunavir, reference compound]", 6600),
    ("CC(C)CN(C[C@@H](OC(=O)CCCSSCCCC(=O)OC[C@@H]1C=C[C@H](n2cnc3c(NC4CC4)nc(N)nc32)C1)[C@H](Cc1ccccc1)NC(=O)O[C@H]1CO[C@H]2OCC[C@H]21)S(=O)(=O)c1ccc(N)cc1", 80),
]

I have this molecule here, Cc1c(OC(=O)CCCSSCCCC(=O)OC[C@@H]2C=C[C@H](n3cnc4c(NC5CC5)nc(N)nc43)C2)cccc1C(=O)N[C@@H](CSc1ccccc1)[C@H](O)CN1C[C@H]2CCCC[C@H]2C[C@H]1C(=O)NC(C)(C)C , and I need its recorded IC50.
590

* * *

# studySystem: P-gp (Homo sapiens)
# Sequence (P08183 whole entry): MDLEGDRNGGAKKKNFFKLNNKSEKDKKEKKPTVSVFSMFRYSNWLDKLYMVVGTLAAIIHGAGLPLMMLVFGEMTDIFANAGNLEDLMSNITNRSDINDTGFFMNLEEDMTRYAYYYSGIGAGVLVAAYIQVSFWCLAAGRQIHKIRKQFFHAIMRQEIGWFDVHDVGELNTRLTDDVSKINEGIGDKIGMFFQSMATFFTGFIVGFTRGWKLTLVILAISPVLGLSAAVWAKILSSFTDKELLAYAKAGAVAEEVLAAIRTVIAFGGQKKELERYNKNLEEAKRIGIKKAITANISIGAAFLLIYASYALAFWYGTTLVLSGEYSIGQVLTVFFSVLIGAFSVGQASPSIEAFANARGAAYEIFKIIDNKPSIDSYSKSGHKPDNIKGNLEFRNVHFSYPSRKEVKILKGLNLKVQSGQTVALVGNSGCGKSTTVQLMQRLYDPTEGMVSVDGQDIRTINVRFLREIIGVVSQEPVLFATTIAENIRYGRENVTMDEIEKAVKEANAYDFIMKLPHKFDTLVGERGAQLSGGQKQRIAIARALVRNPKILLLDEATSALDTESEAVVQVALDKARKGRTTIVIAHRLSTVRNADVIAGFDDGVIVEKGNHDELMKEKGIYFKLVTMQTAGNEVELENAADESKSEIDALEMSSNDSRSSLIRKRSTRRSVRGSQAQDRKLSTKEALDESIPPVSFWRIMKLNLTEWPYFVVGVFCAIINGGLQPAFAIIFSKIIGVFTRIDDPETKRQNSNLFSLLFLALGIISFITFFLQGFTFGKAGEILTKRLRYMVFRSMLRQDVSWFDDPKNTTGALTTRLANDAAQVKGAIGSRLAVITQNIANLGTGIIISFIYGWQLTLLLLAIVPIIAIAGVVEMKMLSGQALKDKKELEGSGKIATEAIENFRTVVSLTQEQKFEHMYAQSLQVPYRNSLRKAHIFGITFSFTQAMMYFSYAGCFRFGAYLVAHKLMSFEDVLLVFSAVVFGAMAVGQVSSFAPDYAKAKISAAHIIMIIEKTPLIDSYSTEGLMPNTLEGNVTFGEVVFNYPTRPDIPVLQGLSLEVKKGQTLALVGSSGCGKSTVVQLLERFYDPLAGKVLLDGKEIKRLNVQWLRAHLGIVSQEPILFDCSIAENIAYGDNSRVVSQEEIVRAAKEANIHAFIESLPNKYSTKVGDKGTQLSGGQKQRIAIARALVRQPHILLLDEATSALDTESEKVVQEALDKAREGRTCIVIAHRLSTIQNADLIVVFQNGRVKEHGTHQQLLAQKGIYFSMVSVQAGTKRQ
# testProtocol: P-gp substrate accumulation assay (flow cytometry) in 12D7-MDR cells
# Assay type: cell-based
# Design: host or cells: 12D7-MDR cells (CD4+ T lymphocytes, kept under vincristine)
# appliedConditions: 12D7-MDR cells; NBD-Aba 5 μM; 30 min; 1% DMSO; read-out: IC50, inhibition of P-gp mediated efflux of NBD-Aba
Record form. Attribute: IC50. Fill in for each entry.
Remember to put the unit after the number in your answer.

# compound, studySystem, IC50
rows = [
    ("CC(C)CN(C[C@@H](OC(=O)CCCSSCCCC(=O)OC[C@@H]1C=C[C@H](n2cnc3c(NC4CC4)nc(N)nc32)C1)[C@H](Cc1ccccc1)NC(=O)O[C@H]1CO[C@H]2OCC[C@H]21)S(=O)(=O)c1ccc(N)cc1", "P-gp (Homo sapiens)", "510 nM"),
    ("CC(C)CN(C[C@@H](O)[C@H](Cc1ccccc1)NC(=O)O[C@H]1CO[C@H]2OCC[C@H]21)S(=O)(=O)c1ccc(N)cc1 [DRV, darunavir, reference compound]", "P-gp (Homo sapiens)", "60000 nM"),
]

Now, please, on to the next compound.
I have this compound here, Cc1c(OC(=O)CCCSSCCCC(=O)OC[C@@H]2C=C[C@H](n3cnc4c(NC5CC5)nc(N)nc43)C2)cccc1C(=O)N[C@@H](CSc1ccccc1)[C@H](O)CN1C[C@H]2CCCC[C@H]2C[C@H]1C(=O)NC(C)(C)C , and I need its recorded IC50.
650 nM
